- Test system: Mus musculus
- test: Neurotoxicity in albino CF1 mouse assessed as minimal motor impairment at 300 mg/kg, ip after 4 hrs by rotorod test
- Type: toxicity, organism-based
- Parameters: dose 300 mg/kg, route intraperitoneal
- condition-summary: in vivo
observable: Activity

# compound, Activity
records = [
    ("COc1cccc(N2CCN(C3CCOC3=O)CC2)c1 (racemic)", "Non-toxic"),
    ("Cc1cccc(C)c1NC1CCOC1=O (configuration not stated)", "Non-toxic"),
    ("COc1ccc(CCN/C(C)=C2/CCOC2=O)cc1OC", "Non-toxic"),
    ("C/C(NCc1ccccc1)=C1\\CCOC1=O", "Non-toxic"),
    ("Cl.O=C1OCCC1N1CCOCC1 (racemic)", "Non-toxic"),
    ("COc1ccc(Cl)cc1N1CCN(C2CCOC2=O)CC1 (racemic)", "Toxic"),
    ("Cl.O=C1OCCC1NC1CCCCC1 (racemic)", "Non-toxic"),
    ("COc1cc2c(cc1OC)CN(C1CCOC1=O)CC2 (racemic)", "Non-toxic"),
    ("COc1ccc(N2CCN(C3CCOC3=O)CC2)cc1 (racemic)", "Non-toxic"),
    ("O=C1OCCC1N1CCN(c2cccc(C(F)(F)F)c2)CC1 (racemic)", "Non-toxic"),
]

Kindly give each listed record's Activity.
1. O=C1CC(N2CCN(c3ccccc3)CC2)CO1 (racemic)
2. O=C1OCCC1N1CCN(c2ccc(F)cc2)CC1 (racemic)

Non-toxic
Toxic
